Molecular target: CypG (Homo sapiens, UniProt Q13427)
Construct: PPIG (UniProtKB Entry Q13427: residues 1–179); His6 with thrombin site (pET28a LIC leader) (N); host or cells: E. coli BL21(DE3)
Sequence (Q13427 1-179): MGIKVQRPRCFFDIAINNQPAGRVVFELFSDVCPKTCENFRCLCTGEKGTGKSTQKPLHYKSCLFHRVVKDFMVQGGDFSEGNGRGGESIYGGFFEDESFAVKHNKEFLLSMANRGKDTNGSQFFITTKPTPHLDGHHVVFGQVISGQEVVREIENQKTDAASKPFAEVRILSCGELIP
Assay: Chymotrypsin coupled prolyl-isomerase assay
Format: biochemical
Conditions: wild-type CypG; read-out: Wild-Type Cyclophilin Prolyl Isomerase Inhibition IC50 Values, CypG
# log10 of IC50 per entry
In plain terms, each number is the log10 of measured IC50 in µM.

Study these solved cases before continuing.
| molecule | log10 of IC50 |
| --- | --- |
| CC12CCCN(C1)C(=O)C=CC(=O)NCCC(C(=O)NCCOCCN)NC(=O)Cc1ccccc1CNC(=O)C(Cc1ccco1)NC2=O (stereo not drawn) [Compound A25] | 0.28 |
| C[N+]1=C(C=CC=CC=C2N(CCCCCC(=O)NCCNC(=O)C3CCNC(=O)C=CC(=O)N4CCCC(Cc5ccccc5)(C4)C(=O)NC(Cc4ccc(-c5ccc(CC(C(=O)O)C(=O)O)cc5)cc4)C(=O)NCc4ccccc4CC(=O)N3)c3ccccc3C2(C)C)C(C)(C)c2ccccc21 (stereo not drawn) [Compound B52-Cy5] | 1.00 |
| CC(=O)c1ccc(-c2ccc(C[C@@H]3NC(=O)[C@]4(Cc5ccccc5)CCCN(C4)C(=O)/C=C/C(=O)NCC[C@@H](C(=O)NCCOCCN)NC(=O)Cc4ccccc4CNC3=O)cc2)cc1 [Compound B15] | 0.26 |
| NCCOCCNC(=O)C1CCNC(=O)C=CC(=O)N2CCCC(Cc3ccccc3)(C2)C(=O)NC(Cc2ccco2)C(=O)NCc2ccccc2CC(=O)N1 (stereo not drawn) [Compound A26] | -0.08 |
| NCCOCCNC(=O)[C@@H]1CCNC(=O)/C=C/C(=O)N2CCC[C@](Cc3ccccc3)(C2)C(=O)N[C@@H](Cc2ccc(-c3ccc(CCC(=O)O)cc3)cc2)C(=O)NCc2ccccc2CC(=O)N1 [Compound B23] | 0.70 |
| NCCCc1ccc(-c2ccc(C[C@@H]3NC(=O)[C@]4(Cc5ccccc5)CCCN(C4)C(=O)/C=C/C(=O)NCC[C@@H](C(=O)NCCOCCN)NC(=O)Cc4ccccc4CNC3=O)cc2)cc1 [Compound B32] | 1.04 |

Would you kindly look at the next entry?
Using the record for NC(=O)C1CCNC(=O)C=CC(=O)N2CCCC(Cc3ccccc3)(C2)C(=O)NC(Cc2ccc(-c3ccc(C=O)c(B(O)O)c3)cc2)C(=O)NCc2ccccc2CC(=O)N1 (stereo not drawn) [Compound C3A] , report its log10 of IC50.
1.60

----------
Molecular target: CypD (Homo sapiens)
Sequence (P30405 45-207): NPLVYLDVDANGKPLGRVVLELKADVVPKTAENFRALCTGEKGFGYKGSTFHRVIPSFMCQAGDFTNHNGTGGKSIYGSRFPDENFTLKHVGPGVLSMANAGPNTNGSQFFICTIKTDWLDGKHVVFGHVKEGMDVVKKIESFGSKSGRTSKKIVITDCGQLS
Experiment: Chymotrypsin coupled prolyl-isomerase assay
Details: IC50 CypD trans, trans olefin isomer
quantity: IC50

| compound | study system | test value |
| --- | --- | --- |
| NCCOCCNC(=O)C1CNC(=O)C=CC(=O)NC2CCC(CC2)C(=O)NC(Cc2ccco2)C(=O)NCc2ccccc2CC(=O)N1 (stereo not shown) | CypD (Homo sapiens) | > 100 µM |
| NCCOCCNC(=O)C1CCNC(=O)C=CC(=O)N2CCCC(C2)C(=O)NC(Cc2ccco2)C(=O)NCc2ccccc2CC(=O)N1 (stereo not shown) | CypD (Homo sapiens) | 17 µM |
| CC(C)(C)CC1NC(=O)C(Cc2ccco2)NC(=O)C2CCCN2C(=O)C=CC(=O)NCc2cccc(c2)CC(C(=O)NCCOCCN)NC1=O (stereo not shown) | CypD (Homo sapiens) | > 100 µM |

Would you kindly look at the next entry?
Using the record for CC(C)(C)CC1NC(=O)C(CC2CCCCC2)NC(=O)C2CCCN2C(=O)C=CC(=O)NCc2cccc(c2)CC(C(=O)NCCOCCN)NC1=O (stereo not shown) , report its IC50.
> 100 µM
